Test: competitive ABPP of pPAFAH versus proteome hydrolases – biochemical, gel-based, FP-Rh fluorescence, complex proteome, SAR compounds, selectivity assay for pPAFAH inhibitor project, SAR follow-up (AID 588774)
Conditions: ABHD3, anti-targets inhibited, at 10 µM

chemical smiles	anti-target count
Cc1cc(N2CCN(C(=O)n3ncc(-c4ccc(Cl)c(Cl)c4)n3)CC2)c2ccccc2n1	8
O=C(N1CCOCC1)n1oc2cc(Cl)ccc2c1=O	6
Cc1cc(N2CCN(C(=O)Oc3noc4cc(Cl)ccc34)CC2)c2ccccc2n1	4
O=C(Oc1noc2cc(Cl)ccc12)N1CCCCC1	2
Cc1cc(N2CCN(C(=O)Oc3ccc(C4CCCC4)cc3)CC2)c2ccccc2n1	0
Cc1cc(N2CCN(C(=O)Oc3ccc(-c4ccccc4)cc3)CC2)c2ccccc2n1	0
Cc1cc(N2CCN(C(=O)n3ncc(-c4ccc(OC(F)(F)F)cc4)n3)CC2)c2ccccc2n1	9
Cc1cc(N2CCN(C(=O)Oc3ccc([N+](=O)[O-])cc3)CC2)c2ccccc2n1	2
Cc1cc(N2CCN(C(=O)n3ncc(-c4ccc([N+](=O)[O-])cc4)n3)CC2)c2ccccc2n1	9
O=C(Oc1noc2cc(Cl)ccc12)N1CCOCC1	3
